The entries below come with measured viability, T/C values attached.
Test system: LG0567-F671-PDC complex spheroids viability
ASSAY_SUMMARY: Anticancer human tumor LG0567-F671-PDC patient-derived lung adenocarcinoma cell line growth inhibition [RAS]
RUN_PARAMETERS: compound 0.01 µM; stronger effect = lower value

// worked examples, viability, T/C included
C=CC(=O)N1CCN(c2nc(OCC3CCCN3C)nc3c(F)c(-c4nc(N)cc(C)c4C(F)(F)F)c(Cl)cc23)C(C)C1 (stereo unspecified) : 14.1% [middle of 12 runs]
CC(C)n1nc(-c2ccc3oc(N)nc3c2)c2c(N)ncnc21 : 75.3% [middle of 4 runs]
CCN1CCN(Cc2ccc(Nc3ncc(F)c(-c4cc(F)c5nc(C)n(C(C)C)c5c4)n3)nc2)CC1 : 85% [middle of 4 runs]

Can you share its viability, T/C? I mean this compound: `O=C(c1ccc(F)c(F)c1Nc1ccc(I)cc1F)N1CC(O)([C@@H]2CCCCN2)C1`
58.9% [middle of 4 runs]

Can you share its viability, T/C? I mean this compound: Nc1ccn(C2OC(CO)C(O)C2(F)F)c(=O)n1 (stereo unspecified)
81% [middle of 4 runs]

Can you share its viability, T/C? I mean this compound: `C=CC(=O)Nc1cc(Nc2nccc(-c3cn(C)c4ccccc34)n2)c(OC)cc1N(C)CCN(C)C`
92.5% [middle of 4 runs]

----------
Tested on: LG0567-F671-PDC complex spheroids viability
ASSAY_SUMMARY: Anticancer human tumor LG0567-F671-PDC cell line growth inhibition [RAS]; active means viability on the fitted dose curve at most 10% of control; inactive means the rest;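 further: spheroids exposed to compound for seven days before readout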
RUN_PARAMETERS: second compound 0.00949 µM; first compound 3.16 µM
One label from this list, please: y (active), n (inactive)

Below are worked cases with known answers.
CC1(O)CCCC1n1c(=O)c(C(F)F)cc2cnc(NC3CCN(S(C)(=O)=O)CC3)nc21 (stereo not drawn) + CCn1c(-c2cc(N3CCN(C)CC3)cnc2C(C)OC)c2c3cc(ccc31)-c1csc(n1)CC(NC(=O)C1CC1C)C(=O)N1CCCC(N1)C(=O)OCC(C)(C)C2 : y
C[C@@H](NC(=O)c1ncnc(N)c1Cl)c1ncc(C(=O)Nc2cc(C(F)(F)F)c(Cl)cn2)s1 + CCn1c(-c2cc(N3CCN(C)CC3)cnc2C(C)OC)c2c3cc(ccc31)-c1csc(n1)CC(NC(=O)C1CC1C)C(=O)N1CCCC(N1)C(=O)OCC(C)(C)C2 : n
NC1c2ccccc2OC12CCN(c1cnc3c(N4CCCc5ncccc54)n[nH]c3n1)CC2 (stereo not drawn) + CCn1c(-c2cccnc2C(C)OC)c2c3cc(ccc31)N1CCOC(CC(NC(=O)C(C(C)C)N(C)C(=O)C3(F)CCN(C(=O)C#CC(C)(C)N(C)C)CC3)C(=O)N3CCCC(N3)C(=O)OCC(C)(C)C2)C1 : y
C[C@@H](NC(=O)c1ncnc(N)c1Cl)c1ncc(C(=O)Nc2cc(C(F)(F)F)c(Cl)cn2)s1 + CCn1c(-c2cccnc2C(C)OC)c2c3cc(ccc31)N1CCOC(CC(NC(=O)C(C(C)C)N(C)C(=O)C3(F)CCN(C(=O)C#CC(C)(C)N(C)C)CC3)C(=O)N3CCCC(N3)C(=O)OCC(C)(C)C2)C1 : n
CC1(O)CCCC1n1c(=O)c(C(F)F)cc2cnc(NC3CCN(S(C)(=O)=O)CC3)nc21 (stereo not drawn) + CCn1c(-c2cccnc2C(C)OC)c2c3cc(ccc31)N1CCOC(CC(NC(=O)C(C(C)C)N(C)C(=O)C3(F)CCN(C(=O)C#CC(C)(C)N(C)C)CC3)C(=O)N3CCCC(N3)C(=O)OCC(C)(C)C2)C1 : n
CCC(CC)c1cc(NC2CCC(N)C2)n2nccc2n1 (stereo not drawn) + CCn1c(-c2cccnc2C(C)OC)c2c3cc(ccc31)N1CCOC(CC(NC(=O)C(C(C)C)N(C)C(=O)C3(F)CCN(C(=O)C#CC(C)(C)N(C)C)CC3)C(=O)N3CCCC(N3)C(=O)OCC(C)(C)C2)C1 : y

Hi, sorry to bother you, what did the test record for Cc1nc(N2CCC3(CC2)COC(C)C3N)c(CO)nc1Sc1ccnc(N)c1Cl (stereo not drawn) + CCn1c(-c2cccnc2C(C)OC)c2c3cc(ccc31)N1CCOC(CC(NC(=O)C(C(C)C)N(C)C(=O)C3(F)CCN(C(=O)C#CC(C)(C)N(C)C)CC3)C(=O)N3CCCC(N3)C(=O)OCC(C)(C)C2)C1 ?
y

Hi, sorry to bother you, what did the test record for CC(C)NCC(C(=O)N1CCN(c2ncnc3c2C(C)CC3O)CC1)c1ccc(Cl)cc1 (stereo not drawn) + CCn1c(-c2cc(N3CCN(C)CC3)cnc2C(C)OC)c2c3cc(ccc31)-c1csc(n1)CC(NC(=O)C1CC1C)C(=O)N1CCCC(N1)C(=O)OCC(C)(C)C2 ?
y

----------
The entries below come with measured viability, T/C values attached.
Tested on: LG0567-F671-PDC complex spheroids viability
ASSAY_SUMMARY: Anticancer human tumor LG0567-F671-PDC cell line growth inhibition [RAS];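 further: spheroids exposed to compound for seven days before readout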
RUN_PARAMETERS: second compound 0.1 µM; first compound 0.0316 µM; stronger effect = lower value
Could you give me the number in %? Just the number is fine.

// worked examples, viability, T/C included
CC1(O)CCCC1n1c(=O)c(C(F)F)cc2cnc(NC3CCN(S(C)(=O)=O)CC3)nc21 (stereo not given) + C#Cc1c(F)ccc2cc(O)cc(-c3ncc4c(N5CC6CCC(C5)N6)nc(OCC56CCCN5CC(F)C6)nc4c3F)c12 : 72.2
C[C@@H](NC(=O)c1ncnc(N)c1Cl)c1ncc(C(=O)Nc2cc(C(F)(F)F)c(Cl)cn2)s1 + C=CC(=O)N1CCN(c2nc(OCC3CCCN3C)nc3c(F)c(-c4nc(N)cc(C)c4C(F)(F)F)c(Cl)cc23)C(C)C1 : 16.3

Can you share its viability, T/C? I mean this compound: C=CC(=O)Nc1cc(Nc2nccc(-c3cn(C)c4ccccc34)n2)c(OC)cc1N(C)CCN(C)C + C#Cc1c(F)ccc2cc(O)cc(-c3ncc4c(N5CC6CCC(C5)N6)nc(OCC56CCCN5CC(F)C6)nc4c3F)c12
66.8

Can you share its viability, T/C? I mean this compound: CC(C)NCC(C(=O)N1CCN(c2ncnc3c2C(C)CC3O)CC1)c1ccc(Cl)cc1 (stereo not given) + C#Cc1c(F)ccc2cc(O)cc(-c3ncc4c(N5CC6CCC(C5)N6)nc(OCC56CCCN5CC(F)C6)nc4c3F)c12
84.2

Can you share its viability, T/C? I mean this compound: NC1c2ccccc2OC12CCN(c1cnc3c(N4CCCc5ncccc54)n[nH]c3n1)CC2 (stereo not given) + C=CC(=O)N1CCN(c2nc(OCC3CCCN3C)nc3c(F)c(-c4nc(N)cc(C)c4C(F)(F)F)c(Cl)cc23)C(C)C1
5.91

----------
The entries below come with measured IC50 values attached.
System: LG0567-F671-PDC complex spheroids viability
ASSAY_SUMMARY: Anticancer human tumor LG0567-F671-PDC cell line growth inhibition [RAS];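 further: spheroids exposed to compound for seven days before readout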;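 on IC50: luminescence signal used as a proxy for viable cells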
RUN_PARAMETERS: curve of first compound; second compound 0.000949 µM

// worked examples, IC50 included
O=C(c1ccc(F)c(F)c1Nc1ccc(I)cc1F)N1CC(O)([C@@H]2CCCCN2)C1 + CCn1c(-c2cc(N3CCN(C)CC3)cnc2C(C)OC)c2c3cc(ccc31)-c1csc(n1)CC(NC(=O)C1CC1C)C(=O)N1CCCC(N1)C(=O)OCC(C)(C)C2 : < 3.16 nM
CC1(O)CCCC1n1c(=O)c(C(F)F)cc2cnc(NC3CCN(S(C)(=O)=O)CC3)nc21 (centres undefined) + CCn1c(-c2cc(N3CCN(C)CC3)cnc2C(C)OC)c2c3cc(ccc31)-c1csc(n1)CC(NC(=O)C1CC1C)C(=O)N1CCCC(N1)C(=O)OCC(C)(C)C2 : < 31.6 nM

Notebook: pull reported IC50 for LG0567-F671-PDC complex spheroids viability, entry NC1c2ccccc2OC12CCN(c1cnc3c(N4CCCc5ncccc54)n[nH]c3n1)CC2 (centres undefined) + CCn1c(-c2cccnc2C(C)OC)c2c3cc(ccc31)N1CCOC(CC(NC(=O)C(C(C)C)N(C)C(=O)C3(F)CCN(C(=O)C#CC(C)(C)N(C)C)CC3)C(=O)N3CCCC(N3)C(=O)OCC(C)(C)C2)C1
< 31.6 nM

Notebook: pull reported IC50 for LG0567-F671-PDC complex spheroids viability, entry Nc1ccn(C2OC(CO)C(O)C2(F)F)c(=O)n1 (centres undefined) + CCn1c(-c2cccnc2C(C)OC)c2c3cc(ccc31)N1CCOC(CC(NC(=O)C(C(C)C)N(C)C(=O)C3(F)CCN(C(=O)C#CC(C)(C)N(C)C)CC3)C(=O)N3CCCC(N3)C(=O)OCC(C)(C)C2)C1
< 3.16 nM

----------
The entries below come with measured viability, T/C values attached.
Tested on: LG0567-F671-PDC complex spheroids viability
ASSAY_SUMMARY: Anticancer human tumor LG0567-F671-PDC cell line growth inhibition [RAS];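 further: spheroids exposed to compound for seven days before readout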
RUN_PARAMETERS: second compound 0.1 µM; first compound 3.16 µM; stronger effect = lower value

CC(=O)OC12COC1CC(O)C1(C)C(=O)C(O)C3=C(C)C(OC(=O)C(O)C(NC(=O)OC(C)(C)C)c4ccccc4)CC(O)(C(OC(=O)c4ccccc4)C21)C3(C)C (configuration not stated) + C=CC(=O)N1CCN(c2nc(OCC3CCCN3C)nc3c(F)c(-c4nc(N)cc(C)c4C(F)(F)F)c(Cl)cc23)C(C)C1 : 13.6%

Shifting focus to the compound that follows.
Can you share its viability, T/C? I mean this compound: CC(C)NCC(C(=O)N1CCN(c2ncnc3c2C(C)CC3O)CC1)c1ccc(Cl)cc1 (configuration not stated) + C=CC(=O)N1CCN(c2nc(OCC3CCCN3C)nc3c(F)c(-c4nc(N)cc(C)c4C(F)(F)F)c(Cl)cc23)C(C)C1
8.46%
